Target: Aurora-B (Homo sapiens, UniProt Q96GD4)
Sequence (Q96GD4 whole entry): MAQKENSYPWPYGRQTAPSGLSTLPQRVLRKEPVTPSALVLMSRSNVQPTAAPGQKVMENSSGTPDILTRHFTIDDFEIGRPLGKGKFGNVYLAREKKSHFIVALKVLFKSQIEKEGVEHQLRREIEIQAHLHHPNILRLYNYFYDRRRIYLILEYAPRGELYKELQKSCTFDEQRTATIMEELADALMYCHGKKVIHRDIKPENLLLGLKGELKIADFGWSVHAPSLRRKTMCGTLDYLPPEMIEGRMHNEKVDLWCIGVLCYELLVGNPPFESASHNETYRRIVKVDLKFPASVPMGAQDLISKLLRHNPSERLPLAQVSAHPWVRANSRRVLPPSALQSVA
I'd appreciate it if you could supply Ki values for the items below.

**Query** Output Ki of C[C@H](Nc1nc(-c2c[nH]c3ncc(Cl)cc23)ncc1F)C(=O)NCCc1nc2ccccc2[nH]1 [Compound 459]
**Result** 500 to 5000 nM

**Query** Output Ki of C[C@H](Nc1nc(-c2c[nH]c3ncc(Cl)cc23)ncc1F)C(=O)NCCN1CCNC1=O [Compound 441]
**Result** 500 to 5000 nM

**Query** Output Ki of C[C@H](Nc1nc(-c2c[nH]c3ncc(Cl)cc23)ncc1F)C(=O)NCCc1ccc(S(N)(=O)=O)cc1 [Compound 446]
**Result** < 500 nM

**Query** Output Ki of CCc1cnc(-c2c[nH]c3ncc(Cl)cc23)nc1N[C@@H](C)c1ccc(F)cc1 [Compound 386]
**Result** < 500 nM

**Query** Output Ki of C[C@H](Nc1cc(CO)nc(-c2c[nH]c3ncc(Cl)cc23)n1)c1ccc(F)cc1 [Compound 339]
**Result** < 500 nM

**Query** Output Ki of Fc1cnc(-c2c[nH]c3ncc(Cl)cc23)nc1NCc1cccc(Cl)c1 [Compound 312]
**Result** < 500 nM

**Query** Output Ki of Fc1cnc(-c2c[nH]c3ncc(Cl)cc23)nc1NC1CCCc2ccccc21 (centres unmarked) [Compound 330]
**Result** < 500 nM

**Query** Output Ki of Fc1cnc(-c2c[nH]c3ncc(Cl)cc23)nc1NCC1CCCCC1 [Compound 349]
**Result** < 500 nM
